Entries and their log10(IC50)
# Tested on: IL-2 production in human whole blood
# CONDITION SUMMARY: read-out: WB/IL-2 (IC50)
log10 IC50, nM

GVIINVKCKISRQCLKPCKDAGMRFGKCMNGKCACTPK [compound 4990] = 1.82
GGGGSGVIINVKCKISRQCLEPCKKAGMRFGKCMNGKCHCTPK [compound 1395] = 0.13
GVIINVKCKISRQCLKPCKDAGMRFGKCMNGKCHC [compound 1396] = 0.60
GVIINVKCKISRQCLKPCKDAGMRFGKCMNGKCHCTPK [compound 296] = 0.20

In the following, a different sequence is considered.
*Q* Under IL-2 production in human whole blood, report log10(IC50) for GVIINVKCKISAQCLKPCKDAGMRFGKCMNGKCHCTPK [compound 1392]
*A* -1.39

Entry source: patent US7825093B2
